MEASUREMENT_TARGET: T1, GST-Grb2 SH2 domain (human, UniProt P62993 60-152)
T1 construct: SH2 domain of Grb2; source: E. coli BL21, purified (glutathione sepharose, NAP-10)
T1 sequence (P62993 60-152): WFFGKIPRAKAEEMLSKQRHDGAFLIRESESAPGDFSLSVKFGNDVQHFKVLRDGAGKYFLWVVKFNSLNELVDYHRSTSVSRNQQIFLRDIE
METHOD_DESCRIPTION: fluorescence polarisation; Rhodamine B-labelled peptide in solution with SH2 domain; Beacon 2000; as previously described [40]
CONDITION_SUMMARY: both partners purified
Non-standard residues stand in square brackets, D forms with d. No end group written: not given here. pY = N[C@@H](Cc1ccc(OP(=O)(O)O)cc1)C(=O)O
REPORTED_ENDPOINT: Kd

SPGE[pY]VNIEFG (also: Rhodamine B label, site not given here, IRS-1 around Y896; source: synthetic peptide (FMOC chemistry), purified by LC/MS) [IRS-1 (Y896) phosphopeptide SPGEpYVNIEFG, Rhodamine B-labelled] :: 800 nM

Asked: Specify Kd for NGLN[pY]IDLDLV (not fully specified (N-terminus); also: Rhodamine B label, site not given here, IRS-1 around Y1179; source: synthetic peptide (FMOC chemistry), purified by LC/MS) [IRS-1 (Y1179) phosphopeptide NGLNpYIDLDLV, Rhodamine B-labelled] and stop.
Given back: > 50000 nM
